Every entry's value here was drawn from the supplement of paper PMC6555819.

# PBM binding z-score per entry
# Tested on: THRa:RXRa (NR concentration 90 nM, RXRa partner concentration 90 nM)
# Assay comment: PBM binding z-score (relative to random genomic background probes); higher = stronger binding; sequences stand for … in GC…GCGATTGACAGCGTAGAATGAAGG
Please give the numeric answer without any surrounding text.

- Sequence string: "CAAACTAGGTCACGAAAGGTCAAAGCCGAATGAC"
  PBM binding z-score: 5.07
- Sequence string: "TCGAGTAGGTTACGGGTGCATTCAGGGATGAAGA"
  PBM binding z-score: 2.22
- Sequence string: "TCGAGTAGGTTACGGGGGCTTTCAGGGATGAAGA"
  PBM binding z-score: 2.43

Requested field: PBM binding z-score. Item: `ATCGAAAGGTGGACGAGGTGAGTATACACCGTTT` 1.77

Next up: `ATCGAAAGGTCGTGAAGTGAGTATACAGAAAGGC` 2.18

Next up: `TCGAGTAGGTTACGGGGGCATTTAGGGATGAAGA` 4.01

Next up: `CCTAGTTGGTCAAGGTAACACACGCTATAGGTAC` 1.85

Next up: `TCGGGTAGGTTACGGGGGCATTCAGGGATGAAGA` 4.32

Next up: `CCTTACGGGTCAGGGTTATAGCACGGGTGGTACG` 2.29

Next up: `ATATGAAGGTTATCGGGTCATTCAGTTTGCGCAT` 3.38

Next up: `CCTAGTTGGTCAGGAGGTCCCACACCGGATATGA` -0.131

Next up: `CTATGTAGGTGAAGGGGGTCATTCAGTTTGAAAG` 3.88

---

# System: RARb:RXRa (NR concentration 270 nM, RXRa partner concentration 90 nM)
# Assay comment: PBM binding z-score (relative to random genomic background probes); higher = stronger binding; sequences stand for … in GC…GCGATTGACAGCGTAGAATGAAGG
Property: PBM binding z-score
Please give the numeric answer without any surrounding text.

Use the examples below as a reference point.
- Sequence string: "CCTACTGGGCCATTAAGAGGTCATTGATCATATG"
  Target system: "RARb:RXRa (NR concentration 270 nM, RXRa partner concentration 90 nM)"
  Property: "PBM binding z-score"
  Recorded result: 2.94
- Sequence string: "GCTCGGGGGACAAGGTCAGAGCTTTGTCCGTAGA"
  Target system: "RARb:RXRa (NR concentration 270 nM, RXRa partner concentration 90 nM)"
  Property: "PBM binding z-score"
  Recorded result: 3.92

Requested field: PBM binding z-score. Item: `TCTAGTAGGTTACGGGGGCATTCAGGGATGAAGA` 3.21

Next up: `TAGCCTAGGTCATGCGGGCCAGTATAGTGTCGGC` 3.66

Next up: `CGTCCAAGGTCAAGGTGAGTGAAAGAGACTCGAA` 5.22

Next up: `ATCCAAAGGTCGAGGTGAGTATAGAGAAAGGGAA` 4.43

---

# PBM binding z-score per entry
# System: RARg homodimer (NR concentration 270 nM)
# Assay comment: PBM binding z-score (relative to random genomic background probes); higher = stronger binding; sequences stand for … in GC…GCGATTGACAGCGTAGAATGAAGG

Use the examples below as a reference point.
- Sequence string: "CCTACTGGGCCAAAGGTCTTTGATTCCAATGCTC"
  PBM binding z-score: 0.0453
- Sequence string: "TAGCCTAAGTCATGGGCCAGTATACCACGCGAAC"
  PBM binding z-score: 0.13
- Sequence string: "CTATGTAGGATAAGGGGGTCATTCAGTTTGAAAG"
  PBM binding z-score: 2.98
- Sequence string: "TCATATAGGTTAAAGGTGAAAGTCGGTGTGGTAA"
  PBM binding z-score: 1.76
- Sequence string: "CGAAATAGGTCACCAGGACAGTGAAGAGGTTGGA"
  PBM binding z-score: 5.96
- Sequence string: "CCTTACGGGTCAGGAGGTTATAGCACGACGAGCG"
  PBM binding z-score: 4.22
- Sequence string: "CGAACTAGGTCACCAGGACAGTCAAGAGGTTGGA"
  PBM binding z-score: 5.18
- Sequence string: "ATATGCAGGTTATCGGGTCATTCAGTTTGCGCAT"
  PBM binding z-score: 2.2

Requested field: PBM binding z-score. Item: `CAATGTAGGTTAAGGGGGTCATTCAGTTTGAAAG` 3.94

Next up: `CCAGAAAGGTGAAAGGTAACTCAGTCTGGTACGC` 2.13

Next up: `CTATGTAGGTTAAGGGGGTCATGCAGTTTGAAAG` 4.16

Next up: `CCGAGTGGGTTACGAGGGGGCATTCAGTGCGAAT` 2.18

Next up: `ATCGAAACGTCGACGAGGTGAGTATACACCGTTT` 0.527

Next up: `TCATATAGGTAATCAGGTGAAAGTCCGTAAGTTA` 0.3

Next up: `TCTGCTAGGTCAACGATGGTCAGCGAATCTGCTA` 4.75

Next up: `ACTCGGGGGACAAAGGTCAGAGCTACGCCAGTGA` 6.12

Next up: `CTATGTAGGTTAAGGGGGTCATCCAGTTTGAAAG` 4.17

Next up: `CAAACTAGGTCAAAGGTCAAAATCGAGCCAACCA` 7.08

Next up: `TAGCCTAGGTCAGATCGGGGCAGTATACGCTATA` 3.83

Next up: `CCTGCTCGGTCAATGGTCAGCTAAAGCAGCTCGC` 2.47

Next up: `CGTCCAAGGTCAATGCTAGGTCACTGAAAGCATT` 6.93

Next up: `CCTGCTAGGTCAAGGGTCAGCTAAAGCAGCTCGC` 6.43

Next up: `ACTCGGAGGACAAAGGTCAGAACTACGCCAGTGA` 4.61

Next up: `CGTCCAAGGTCAACAGGTCAGTGAAAGCGACGTG` 7.37

Next up: `AGTCAAATTTCACTAGGTAACGTAAGATTCAGCT` 0.218

Next up: `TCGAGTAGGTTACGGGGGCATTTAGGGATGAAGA` 2.58
